Consider the following molecules and their measured TGI readings.
# Test system: IGROV1 ovarian
# ASSAY_NOTES: NCI tumour cell line growth inhibition, 48 h
// units = µM; emit number, no label

Below are worked cases with known answers.
# MOLECULE, UNIT_ANNOTATION, TGI
rows = [
    ("COc1cc(-c2nccc3[nH]c(-c4cccc5[nH]ccc45)nc23)cc(OC)c1OC", "µM", 23.2),
    ("Nc1cccc(/C=C/CN2CCN(CCOC(c3ccccc3)c3ccccc3)CC2)c1", "µM", 30.1),
    ("O=CN1CCN(C(=O)c2ccc(Cl)cc2)C1=S", "µM", 28.5),
]

Recorded TGI for N#Cc1c(N)nc2c(N=Nc3ccccc3)c(N)nn2c1Nc1ccccc1 , please?
29.3

Follow-up entry: COc1ccc(/C=C/c2ccnc3ccccc23)cc1
32.5

And then S=C(Nc1ccc(Cl)cc1)SC1CCCCC1 , what is it?
54.2

Entry to check: CC[C@@]1(OC(=O)C(N)CCC(=O)O)C(=O)OCc2c1cc1n(c2=O)Cc2cc3ccccc3nc2-1 (some centres not stated)
4.35

Another molecule to look at: CCc1ccc(Oc2nccc(-c3c(-c4ccc(F)cc4)ncn3C3CCNCC3)n2)cc1
12.1

Proceed to Cc1cc2oc(=O)c(Cl)c(Cl)c2c(C)c1Cl
15.8

* * *

Reported TGI values for the following compounds.
# System: UACC-257 melanoma
# ASSAY_NOTES: NCI tumour cell line growth inhibition, 48 h

Field: example entries. Status: answers known.
# COMPOUND, EXPERIMENTAL_TARGET, TGI
data = [
    ("O=c1[nH]cc(CO)c(=O)[nH]1", "UACC-257 melanoma", "> 100 µM"),
    ("O=NNc1ccc(Sc2ccc3ccccc3c2)cn1", "UACC-257 melanoma", "> 100 µM"),
    ("CCCC1=NC(C(F)(F)F)(C(F)(F)F)N=C(N2CCOCC2)O1", "UACC-257 melanoma", "> 100 µM"),
]

Look at this compound and give its reported TGI. Clc1cc2nnn(C3CCCCO3)c2cc1Cl (configuration not stated)
> 100 µM

Continue with CCOC(=O)C1=COC(C)(C)CC1=O
> 100 µM

Next entry: Nc1nccc2c1ncn2C1C=C(CO)C(O)C1O (configuration not stated)
> 1000 µM

Follow-up entry: CCN(CC)CCNC(=O)c1cc(Cl)c(N)cc1OC
19.4 µM

* * *

# Tested on: SK-OV-3 ovarian
# ASSAY_NOTES: NCI tumour cell line growth inhibition, 48 h
*1 amine or outer side, *2 acyl side, *3 side chain or, on linkers, in order; H or OH if unused. Where a SMILES comes first, the peptide text is derived from it. Bridges are numbered along the chain shown (N, C = ends). Roman numbers before positions name the chains, in order. X23 = CCCCCCCCCCCCCCC(=O)NC(CCCCN[*:2])C(=O)CN1CCCC1C(=O)[*:1]
READOUT_TYPE: GI50

Worked set:
# COMPOUND, EXPERIMENTAL_TARGET, REPORTED
data = [
    ("COc1ccc(C2=NNC(c3cc(Cc4ccc(O)c(C5CC(c6ccc(OC)cc6)=NN5)c4)ccc3O)C2)cc1 (centres undefined)", "SK-OV-3 ovarian", "31.6 µM"),
    ("CCN1CCN(CC(=O)Nc2nc3ccc(NCc4ccc(C)cc4)cc3s2)CC1", "SK-OV-3 ovarian", "4.12 µM"),
    ("Cc1cc(NS(=O)(=O)c2ccc(NC(=O)COc3ccc(-c4cc5ccccc5[nH]4)cc3)cc2)no1", "SK-OV-3 ovarian", "1.85 µM"),
]

For the compound shown here, Cc1ccn2c(-c3csc(Nc4cccc(O)c4)n3)c(C)nc2c1 , give the reported GI50.
1.04 µM

Next: CCCCCCCCCCCCCCC(=O)NC(CCCCNC(=O)C1CCCN1C(=O)C(CCCCN)NC(=O)C(CCCCN)NC(=O)C(CCCCN)NC(=O)C(CCCNC(=N)N)NC(=O)C(CCCCN)NC(=O)C(N)C(C)C)C(=O)CN1CCCC1C(=O)NCC(=O)NC(Cc1ccccc1)C(=O)N1CCCC1C(=O)NC(CO)C(=O)NC(Cc1ccc(O)cc1)C(=O)NC(CCCCN)C(=O)NC(CC(C)C)C(=O)NC(CCCNC(=N)N)C(=O)N1CCCC1C(=O)NCC(N)=O (centres undefined) (I: GFPSYKLRPG-NH2 / II: H-VKRKKKP; linker I:N-II:C via X23; configuration not given here)
15.9 µM

Ok, now CCc1ccc(Oc2nccc(-c3c(-c4ccc(F)cc4)ncn3C3CCNCC3)n2)cc1
4.37 µM

Could you do the same for Cc1cc(N2CCN(C)CC2)nc(N(CCNc2ccnc3cc(Cl)ccc23)Cc2ccco2)n1 , please?
10.4 µM

Note, next up: NS(=O)(=O)c1cccc(-c2cc3ccncc3cc2OCc2ccccc2)c1
> 18.5 µM

Repeat for the following compound: C/C(=C\CCc1ccsc1)CC/C=C(\C)CCCN1CCN(CCO)CC1
7.58 µM

* * *

# Tested on: COLO 205 colon
# ASSAY_NOTES: NCI tumour cell line growth inhibition, 48 h
Reported TGI values for a set of molecules

Below: 4 molecules and their reported TGI.
# MOLECULE, READOUT_TYPE, REPORTED
records = [
    ("Cc1ccc(C2NC(=S)N3C(c4ccc(C)cc4)NC(=S)N23)cc1 (stereo not given)", "TGI", "18.5 µM"),
    ("Cc1ccc(-n2nnc3c(sc4ccccc43)c2=O)cc1", "TGI", "> 100 µM"),
    ("N#CC12CC=C(c3ccccc3)N=C1NC(c1ccccc1)=CC2 (stereo not given)", "TGI", "> 100 µM"),
    ("c1ccc(N=C2C(=Nc3ccccc3)N(C3CCCCC3)C(=NC3CCCCC3)N2c2ccccc2)cc1", "TGI", "> 100 µM"),
]

Now take the following molecule into account.
TGI lookup needed for O=C(Nc1sccc1S(=O)(=O)c1ccc(Cl)cc1)c1ccc(Cl)cc1Cl , thanks.
> 100 µM

* * *

# System: OVCAR-3 ovarian
# ASSAY_NOTES: NCI tumour cell line growth inhibition, 48 h
READOUT_TYPE: TGI (µM)
Provide the reading as a plain figure in µM.

Example entries begin here.
# MOLECULE, REPORTED
data = [
    ("CC1=C(C(=O)Nc2cccc(C(F)(F)F)c2)C(c2ccccc2F)C(C(=O)Nc2cccc(C(F)(F)F)c2)=C(C)N1", 17.8),
    ("Oc1[nH]c2ccc(Cl)cc2c1/C=c1/ccc2c(c1)N=C(c1ccc(C(F)(F)F)cc1)N=2", 3.21),
    ("Cc1ccc2nc3sc(=O)sc3nc2c1", 27.7),
]

// lookup TGI for Cc1ccc(NC(C(=O)c2ccccc2)c2ccccc2)cc1 (stereo not given)
59.9

* * *

# Test system: OVCAR-4 ovarian
# ASSAY_NOTES: NCI tumour cell line growth inhibition, 48 h; in the data active means GI50 below about 0.43 µM; inactive means the rest
Answer with one of the outcomes given here: T = active, F = inactive

Worked examples follow.
# MOLECULE, EXPERIMENTAL_TARGET, DISCRETE_LABEL
rows = [
    ("C=C1C(=O)O[C@H]2[C@H]1CC/C(COC(=O)c1cccc3ccccc13)=C\\CC[C@@]1(C)O[C@@H]21", "OVCAR-4 ovarian", "F"),
    ("Nc1ncnc2c1nc(N)n2C1OC(CO)C(O)C1O (stereo unspecified)", "OVCAR-4 ovarian", "F"),
    ("O=C(N/N=C/c1ccncc1)c1ccc(C(F)(F)F)nc1Nc1cccc(C(F)(F)F)c1", "OVCAR-4 ovarian", "F"),
    ("Nc1cccc2c1CN(C1CCC(=O)NC1=O)C2=O (stereo unspecified)", "OVCAR-4 ovarian", "F"),
    ("COc1cccc2c1C(=O)c1c(O)c3c(c(O)c1C2=O)C[C@@](O)(C(C)=O)C[C@@H]3OC1CC(N(C)C)C(O)C(C)O1 (stereo partly specified)", "OVCAR-4 ovarian", "T"),
]

Lab log entry: CC(N)CN.CC(N)CN.[Cl-].[O]=[Os+2]=[O] (stereo unspecified) — outcome as called in the assay?
F

Then this molecule: N#Cc1ccc(N2Cc3cc(Cl)ccc3OC3=C2C(=O)N(Cc2ccc(F)cc2)C3=O)cc1
T

Try this molecule next: Cc1cn(C2CC(N=[N+]=[N-])C(CO)O2)c(=O)[nH]c1=O (stereo unspecified)
F

* * *

# Tested on: UACC-257 melanoma
# ASSAY_NOTES: NCI tumour cell line growth inhibition, 48 h
*1 amine or outer side, *2 acyl side, *3 side chain or, on linkers, in order; H or OH if unused. Where a SMILES comes first, the peptide text is derived from it. Bridges are numbered along the chain shown (N, C = ends). Roman numbers before positions name the chains, in order. X23 = CCCCCCCCCCCCCCC(=O)NC(CCCCN[*:2])C(=O)CN1CCCC1C(=O)[*:1]
READOUT_TYPE: TGI (µM)
Response body: numeric value in µM, unit text excluded.

Worked examples follow.
# COMPOUND, EXPERIMENTAL_TARGET, UNIT_ANNOTATION, REPORTED
records = [
    ("CN(CCNC(=O)c1cn(C)c2c1ccc1cc(Cl)ccc12)CCNC(=O)c1cn(C)c2c1ccc1cc(Cl)ccc12", "UACC-257 melanoma", "µM", 67.4),
    ("COc1ccc2[nH]c3c(C)c4ccnc(NCCCN(C)CCCN)c4c(C)c3c2c1", "UACC-257 melanoma", "µM", 2.95),
    ("O=C1C=CC(=O)c2c1cc1ccccc1c2O", "UACC-257 melanoma", "µM", 7.91),
    ("CCCCCCCCCCCCCCC(=O)NC(CCCCNC(=O)C1CCCN1C(=O)C(CCCCN)NC(=O)C(CCCCN)NC(=O)C(CCCCN)NC(=O)C(CCCNC(=N)N)NC(=O)C(CCCCN)NC(=O)C(N)C(C)C)C(=O)CN1CCCC1C(=O)NCC(=O)NC(Cc1ccccc1)C(=O)N1CCCC1C(=O)NC(CO)C(=O)NC(Cc1ccc(O)cc1)C(=O)NC(CCCCN)C(=O)NC(CC(C)C)C(=O)NC(CCCNC(=N)N)C(=O)N1CCCC1C(=O)NCC(N)=O (stereo not given) (I: GFPSYKLRPG-NH2 / II: H-VKRKKKP; linker I:N-II:C via X23; configuration not given here)", "UACC-257 melanoma", "µM", 53.8),
]

Here's the next entry for you.
I am curious: what TGI value has been reported for CCOC(=O)C1=C(C)NC(C)=C(C(=O)OCC)C1c1cc(Br)c(O)c(OC)c1 ?
31.4
